molecular target: HLA-A2.1 molecules expressed by 174CEM.T2 cells (human); test: T2 HLA-A2.1 stabilisation, flow cytometry (BB7.2), peptide 200 ug/ml; settings: remark: other sources report otherwise
Binary label based on FI (Fluorescence Index) with cut-off 2: below gives Yes, not below gives No.

binder="KLPDLCTEL (modifications not checked) [… (residues 13-21 of HPV18 protein E6)]" discretelabel=No
binder="ELTEVFEFA (modifications not checked) [… (residues 40-48 of HPV18 protein E6)]" discretelabel=Yes
binder="EITCVYCKT (modifications not checked) [… (residues 29-37 of HPV18 protein E6)]" discretelabel=Yes
binder="QLCTELQTT (modifications not checked) [… (residues 21-29 of HPV16 protein E6)]" discretelabel=No

Data origin, for the record: patent US7364741
